- SUBJECT OF TEST: Human DR5-ECD long form polypeptide (human)
- ASSAY DETAILS: phage competition ELISA, cross-reactivity
REPORTED ENDPOINT: IC50 (nM)

- GEVCLTLCSKLT (displayed on phage) [LB956]: 35.3
- GEVCLTECSKLR (displayed on phage) [LB959]: 23.5
- GEVCLTECSRLT (phage-displayed) [LB960]: 17.6
- GEVCLTLCSKLR (displayed on phage) [LB952]: 424

From: patent US20070066800A1
